From: patent US10035800B2

# Tested on: breast cancer cell line MX-1
# ASSAY NAME: MX-1 cell line proliferation assay
# Format: cell-based
# RUN CONDITIONS: MX-1 cells, 3-day proliferation assay, Cell Titer Glo; read-out: Cellular proliferation: EC50
# Protocol: MX-1 Cell Line Proliferation Assay The impact of compounds of the Examples on cancer cell proliferation was determined using the breast cancer cell line MX-1 (ATCC) in a 3-day proliferation assay and the data are reported in Table 1. […] Luminescence readings from the Cell Titer Glo assay were normalized to the DMSO treated cells and analyzed using the GraphPad Prism software with sigmoidal curve fitting to obtain EC50s. […]
pEC50: −log10 of the molar value.
READOUT LABEL: pEC50

1: Cn1cc2c3c(c[nH]c3c1=O)CN(c1ccc(F)cc1)c1ccc(CS(C)(=O)=O)cc1-2
2: CC(=O)NC1CCC(N2Cc3c[nH]c4c(=O)n(C)cc(c34)-c3cc(CS(C)(=O)=O)ccc32)CC1 (mixture of isomers)
3: Cn1cc2c3c(c[nH]c3c1=O)C(c1cccc(C#N)c1)N(c1ccc(F)cc1F)c1ccc(CS(C)(=O)=O)cc1-2 (stereo not shown)
Q: Please sort the compounds listed above from highest to lowest pEC50. API: response body holds the labels in the requested order.
Result: 1, 2, 3
(1: 9.14, 2: 6.82, 3: 6.50)

* * *

# System: breast cancer cell line MX-1
# ASSAY NAME: MX-1 cell line proliferation assay
# Format: cell-based
# RUN CONDITIONS: MX-1 cells, 3-day proliferation assay, Cell Titer Glo; read-out: Cellular proliferation: EC50
pEC50: −log10 of the molar value.
READOUT LABEL: pEC50

Cn1cc2c3c(c[nH]c3c1=O)CN(C(=O)Nc1ccc(F)cc1)c1ccc(CS(C)(=O)=O)cc1-2 [Example 46]: 6.82

I: Cn1cc2c3c(c[nH]c3c1=O)CN(c1ccc(F)cc1F)c1c-2cc(CS(C)(=O)=O)cc1C1CC1 [Example 195]
II: Cc1cnc2c(c1)-c1cn(C)c(=O)c3[nH]cc(c13)CN2c1ccc(F)cc1 [Example 11]
Q: Select one: I or II . Criterion: greater recorded pEC50. // output: label of the selected item
Result: II

* * *

# TARGET UNDER TEST: BRD4 (BDI_K57-E168) (Homo sapiens, UniProt O60885)
# Construct: BD1: amino acids K57-E168; made in house
# ASSAY NAME: TR-FRET bromodomain binding assay, first bromodomain of BRD4
# RUN CONDITIONS: TR-FRET assay protocol G (compound 0.92 μM-15 pM); 100 nM probe
READOUT LABEL: Ki (µM)

The cases that follow already have their Ki on record.
Cn1cc2c3c(c[nH]c3c1=O)C(CNC(=O)CNC(=O)OC(C)(C)C)N(c1ccc(F)cc1F)c1ccc(CS(C)(=O)=O)cc1-2 (stereo not shown): 0.0114
Cn1cc2c3c(c[nH]c3c1=O)CN(CC1CCOC1)c1ccc(CS(C)(=O)=O)cc1-2 (stereo not shown): 0.000701
Cn1cc2c3c(c[nH]c3c1=O)CN(C(=O)c1ccc(F)cc1F)c1ccc(CS(C)(=O)=O)cc1-2: 0.0532

I: CN(C)CCCC1c2c[nH]c3c(=O)n(C)cc(c23)-c2cc(CS(C)(=O)=O)ccc2N1c1ccc(F)cc1F (racemic)
II: Cn1cc2c3c(c[nH]c3c1=O)[C@@H](c1ccccc1)N(c1ccc(F)cc1F)c1ccc(CS(C)(=O)=O)cc1-2 (single isomer, unassigned)
Q: Parameter check: reported Ki is higher for which label, I or II ? When you have decided, please share the label of that item.
Result: II

P: Cn1cc2c3c(c[nH]c3c1=O)CN(CC1CC1)c1c(F)cc(F)cc1-2
Q: Cn1cc2c3c(c[nH]c3c1=O)CN(C(=O)OCCF)c1ccc(CS(C)(=O)=O)cc1-2
Q: When P and Q are compared, which has the higher number for Ki? Use the label to indicate which entry you chose.
Result: Q
(Q: 0.00346 µM, P: 0.00199 µM)
